Each recorded value in this set is attributed to patent US8569292B2.

assay system: 11β-HSD1 (Homo sapiens, UniProt P28845)
Sequence (P28845 whole entry): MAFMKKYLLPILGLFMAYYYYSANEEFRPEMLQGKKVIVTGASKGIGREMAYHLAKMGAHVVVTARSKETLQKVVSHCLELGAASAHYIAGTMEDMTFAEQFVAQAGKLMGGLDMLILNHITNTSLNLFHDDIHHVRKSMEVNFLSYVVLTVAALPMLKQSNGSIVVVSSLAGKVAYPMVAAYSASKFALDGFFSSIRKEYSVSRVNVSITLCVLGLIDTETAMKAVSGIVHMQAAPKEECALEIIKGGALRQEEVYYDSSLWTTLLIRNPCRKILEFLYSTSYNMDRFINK
protocol text: Biological Test Example 4: microsomal 11β-HSD1 in the presence of 50% human plasma
condition details: IC50 in Test Example 4 divided by IC50 in Test Example 1
Reported Shift is given for each of the following compounds.
Reply: number alone, nothing else.

Example entries and their recorded answers appear below.
molecule smiles	Shift
Cc1cc(-c2ccc([C@H](C)N3CC[C@](CCC(=O)O)(c4ccc(F)cc4)OC3=O)cc2)ccn1	3.0
C[C@@H](c1ccc(-c2cncc(C#N)n2)cc1)N1CC[C@](CC(C)(C)O)(c2ccc(F)cc2)OC1=O	9.6
COc1cncc(-c2ccc([C@H](C)N3CC[C@](CCCO)(c4ccc(F)cc4)OC3=O)cc2)c1	14.6

IN: I'd like to know its Shift. The compound in question is `C[C@@H](c1ccc(-c2ccccn2)cc1)N1CC[C@](CCO)(c2ccc(F)cc2)OC1=O`
OUT: 18.8
